- Tested system: RET V804M (Homo sapiens, UniProt P07949, V804M)
- Sequence (P07949 29-1114 V804M): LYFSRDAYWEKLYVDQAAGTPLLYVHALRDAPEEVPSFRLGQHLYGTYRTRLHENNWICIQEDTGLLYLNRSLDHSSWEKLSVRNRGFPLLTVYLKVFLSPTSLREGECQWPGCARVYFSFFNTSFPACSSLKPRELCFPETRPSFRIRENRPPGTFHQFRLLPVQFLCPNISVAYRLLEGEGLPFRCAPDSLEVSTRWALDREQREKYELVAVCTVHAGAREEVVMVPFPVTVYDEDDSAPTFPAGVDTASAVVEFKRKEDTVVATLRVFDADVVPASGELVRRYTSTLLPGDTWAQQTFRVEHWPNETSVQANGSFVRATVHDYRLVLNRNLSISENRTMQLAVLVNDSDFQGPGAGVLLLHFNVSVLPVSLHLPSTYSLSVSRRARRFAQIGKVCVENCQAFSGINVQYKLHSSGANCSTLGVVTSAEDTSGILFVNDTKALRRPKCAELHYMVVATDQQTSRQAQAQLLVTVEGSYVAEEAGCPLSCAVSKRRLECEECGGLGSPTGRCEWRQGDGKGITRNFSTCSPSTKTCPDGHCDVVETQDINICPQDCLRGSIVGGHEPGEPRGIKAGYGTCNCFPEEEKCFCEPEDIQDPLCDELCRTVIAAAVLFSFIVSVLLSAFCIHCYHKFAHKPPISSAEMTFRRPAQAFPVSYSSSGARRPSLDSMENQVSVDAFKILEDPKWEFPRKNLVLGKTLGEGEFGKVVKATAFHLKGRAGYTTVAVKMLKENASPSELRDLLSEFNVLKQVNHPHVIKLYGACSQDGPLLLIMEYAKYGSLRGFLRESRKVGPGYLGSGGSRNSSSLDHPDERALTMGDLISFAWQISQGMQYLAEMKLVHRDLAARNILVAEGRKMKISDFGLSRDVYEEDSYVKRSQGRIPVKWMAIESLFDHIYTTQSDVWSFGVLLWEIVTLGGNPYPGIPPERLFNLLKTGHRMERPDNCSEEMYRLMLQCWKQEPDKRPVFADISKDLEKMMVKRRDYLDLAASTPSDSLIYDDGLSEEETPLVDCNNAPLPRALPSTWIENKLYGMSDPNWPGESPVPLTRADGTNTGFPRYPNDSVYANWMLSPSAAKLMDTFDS
- Assay method text: In vitro kinase activity assay (mobility shift assay), RET V804M
- Test parameters: ATP 5.4 μM, reaction time 60 min
pIC50: −log10 of the molar value.
Experimental readout: pIC50

// below: answered molecules
>>> value_observed("COc1ccc(-c2c3nc4c(cnn4c2N)C(=O)NC[C@H](C)Oc2ncc(F)cc2CN3)cc1 [Example 59]")
7.42
>>> value_observed("CCNC(=O)Nc1ccc(-c2c3nc4c(cnn4c2N)C(=O)NC[C@H](C)Oc2ncc(F)cc2CN3)cc1 [Example 80]")
9.00
>>> value_observed("CCOC(=O)Nc1ccc(-c2c3nc4c(cnn4c2N)C(=O)NC[C@H](C)Oc2ncc(F)cc2CN3)cc1F [Example 69]")
8.55
>>> value_observed("CCCOC(=O)Nc1ccc(-c2c3nc4c(cnn4c2N)C(=O)NC[C@H](C)Oc2ncc(F)cc2CN3)cc1 [Example 67]")
8.45
>>> value_observed("C[C@H]1CNC(=O)c2cnn3cc(-c4ccccc4Cl)c(nc23)NCc2cc(F)cnc2O1 [Compound 4]")
6.79

1 = Nc1c(-c2ccccc2)c2nc3c(cnn13)C(=O)NCCCc1ncc(F)cc1CN2 [Example 73]
2 = CCOC(=O)Nc1ccc(-c2c3nc4c(cnn4c2N)C(=O)NC[C@H](C)Oc2ncc(F)cc2CN3)c(F)c1 [Example 71]
3 = COC(=O)Nc1ccc(-c2cn3ncc4c3nc2NCc2cc(F)cnc2O[C@@H](C)CNC4=O)cc1 [Compound 30]
4 = CCOC(=O)Nc1ccc(-c2c3nc4c(cnn4c2N)C(=O)NC[C@H](C)Oc2ncc(F)cc2CN3)cc1 [Example 62]
### Prompt Please list the entries, largest pIC50 first. Rank the items, then write their labels in that order.
### Response 4, 2, 3, 1

From: patent US20230219978A1
